tested target: human CDC25A (recombinant GST-CDC25) (Homo sapiens, UniProt P30304)
Sequence (P30304 whole entry): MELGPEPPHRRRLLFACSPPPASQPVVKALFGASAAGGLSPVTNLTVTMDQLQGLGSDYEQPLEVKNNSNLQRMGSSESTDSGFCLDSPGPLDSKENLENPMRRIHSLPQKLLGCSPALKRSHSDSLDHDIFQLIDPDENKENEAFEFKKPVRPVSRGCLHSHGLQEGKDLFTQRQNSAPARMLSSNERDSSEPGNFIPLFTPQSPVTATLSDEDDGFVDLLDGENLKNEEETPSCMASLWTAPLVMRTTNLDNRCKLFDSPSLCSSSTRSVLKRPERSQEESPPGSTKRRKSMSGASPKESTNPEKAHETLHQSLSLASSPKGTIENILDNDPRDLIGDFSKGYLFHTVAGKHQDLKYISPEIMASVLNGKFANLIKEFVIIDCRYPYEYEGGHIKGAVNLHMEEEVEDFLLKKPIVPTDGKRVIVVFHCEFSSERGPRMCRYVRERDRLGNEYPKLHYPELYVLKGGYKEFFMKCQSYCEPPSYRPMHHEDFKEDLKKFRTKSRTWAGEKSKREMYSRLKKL
test description: CDC25A dephosphorylation assay with 3-O-methylfluorescein phosphate (fluorimetric)
condition context: mean of triplicates ± SD
assay endpoint: IC50 (nM)

[
  {
    "compound": "COC1=CC(=O)[C@]2(C)CC=C3CO[C@@H](c4ccoc4)CC3[C@]2([S@@+]([O-])c2ccc(C)cc2)C1=O (stereo partly shown)",
    "u": "nM",
    "IC50": 3730
  },
  {
    "compound": "COC1=CC(=O)C=C([S@@+]([O-])c2ccc(C)cc2)C1=O",
    "u": "nM",
    "IC50": 2640
  },
  {
    "compound": "CCOC1=CC(=O)C(C)=C([S@@+]([O-])c2ccc(C)cc2)C1=O",
    "u": "nM",
    "IC50": 3190
  },
  {
    "compound": "COC1=CC(=O)[C@]2(C)CC=C3CO[C@@H](c4ccccc4)CC3[C@]2([S@@+]([O-])c2ccc(C)cc2)C1=O (stereo partly shown)",
    "u": "nM",
    "IC50": 2530
  }
]
